- Test system: SF-539 CNS
- protocol summary: NCI tumour cell line growth inhibition, 48 h; in the data active = GI50 below about 0.43 µM; inactive = the rest
Classes used: true (1) for active, false (0) for inactive

INSERT INTO assay_data (molecule, cat) VALUES
  ('Cn1cc(C2=C(c3cn(-c4ccccc4)c4ccccc34)C(=O)NC2=O)c2ccccc21', 'false (0)'),
  ('COc1cc(CNCCN2C(=O)c3ccc4c5c(ccc(c35)C2=O)C(=O)N(CCNCc2cc(OC)c(OC)c(OC)c2)C4=O)cc(OC)c1OC', 'true (1)'),
  ('COc1cc(N2C(=O)[C@H](c3ccccc3)C2c2ccc(SC)cc2)cc(OC)c1OC (stereo partly drawn)', 'true (1)'),
  ('CC1(C)N=C(N)N=C(N)N1c1ccc(Cl)cc1', 'false (0)'),
  ('COc1ccc(C2CC(c3ccc(Nc4ccnc5cc(Cl)ccc45)cc3)=NN2C=O)cc1 (stereo not drawn)', 'false (0)'),
  ('COc1cc([N+](=O)[O-])c(OC)cc1-c1nc2sc(C)cn2c1/C(N)=N/C(=N)N', 'false (0)'),
  ('CCOC(=O)C1=C(C)NC(=O)NC1CN1C(=O)c2ccccc2C1=O (stereo not drawn)', 'false (0)'),
  ('Cn1cc(-c2nc(-c3c[nH]c4ncccc34)cs2)c2ccccc21', 'false (0)'),
  ('CC1(C)N=C(N)N=C(N)N1c1ccc(OCCCNC(=O)Nc2cccc(S(=O)(=O)F)c2)c(Cl)c1', 'false (0)'),
  ('CN(C)CC(=O)Nc1ccc2ncnc(Nc3ccc(Oc4cccc(C(F)(F)F)c4)c(Cl)c3)c2c1', 'false (0)'),
  ('COc1ccc(NC2=C(I)C(=O)c3ncccc3C2=O)cc1', 'false (0)'),
  ('CN(C)CCCSc1ccccc1NC1=C(Cl)C(=O)C(Nc2ccccc2SCCCN(C)C)=C(Cl)C1=O', 'false (0)'),
  ('O=C(c1ccc(C(F)(F)F)c(Cl)c1)N(Cc1ccc(Cl)cc1)c1ccc(-c2cc(C(F)(F)F)[nH]n2)c(O)c1', 'false (0)'),
  ('CC(=O)CC/C=C(\C)[C@H](O)[C@H](C)C(=O)O[C@H]1C[C@H](C)C=C2C=C[C@@]3(C)O[C@@H](O)CC(=O)[C@]3(C)[C@H]21', 'true (1)'),
  ('COC(=O)c1cc2oc(/C=C3/SC(=S)N(N)C3=O)cc2n1Cc1ccccc1', 'false (0)'),
  ('Clc1cc(Cl)c(OCCCCCCN2CCNCC2)c(Cl)c1', 'false (0)'),
  ('N#CC1=C(N)NC(=S)NC12Nc1ccccc1S2 (stereo not drawn)', 'false (0)'),
  ('COc1ccc(CCN(CC(=O)N(CC(N)=O)C2CCC[C@@H]2OCc2ccccc2)C(=O)CN(C(=O)CN(CCc2ccc(Cl)cc2)C(=O)CN(C(=O)CN(C)Cc2ccccc2F)[C@H](C)C2CCCCC2)[C@H](C)C2CCCCC2)cc1OC (stereo partly drawn)', 'false (0)');
